FYI, the data here is from patent US20240182536A1.

Biological target: T1, interleukin 18 binding protein (IL-18BP) (UniProt O95998 31-194)
T1 sequence (looked up): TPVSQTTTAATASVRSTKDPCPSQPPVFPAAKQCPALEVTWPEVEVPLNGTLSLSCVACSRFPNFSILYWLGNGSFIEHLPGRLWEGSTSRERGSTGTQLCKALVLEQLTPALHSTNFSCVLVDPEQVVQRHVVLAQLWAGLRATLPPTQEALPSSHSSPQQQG
Assay: cell-based or functional assay
Binary call on Ratio (HEK-blue EC50, + 300 nM BP against - BP) with cut-off 2: strictly below means fulfilled, and equality or higher means not fulfilled.

INSERT INTO measurements (binder, assigned_label) VALUES
  ('IL-18 variant G3L, E6S, D54T, T63S, N91Y, R104Q (ligand) YFLKLSSKLSVIRNLNDQVLFIDQGNRPLFEDMTDSDMRDNAPRTIFIISMYKTSQPRGMAVSISVKSEKISTLSSENKIISFKEMNPPDYIKDTKSDIIFFQQSVPGHDNKMQFESSSYEGYFLASEKERDLFKLILKKEDELGDRSIMFTVQNED', 'not fulfilled'),
  ('IL-18 variant G3L, E6Y, D54T, T63S, N91Y, R104Q (ligand) YFLKLYSKLSVIRNLNDQVLFIDQGNRPLFEDMTDSDMRDNAPRTIFIISMYKTSQPRGMAVSISVKSEKISTLSSENKIISFKEMNPPDYIKDTKSDIIFFQQSVPGHDNKMQFESSSYEGYFLASEKERDLFKLILKKEDELGDRSIMFTVQNED', 'not fulfilled'),
  ('IL-18 variant G3Q, E6H, K53T, D54S, S55Y, N91Y, R104K (ligand) YFQKLHSKLSVIRNLNDQVLFIDQGNRPLFEDMTDSDMRDNAPRTIFIISMYTSYQPRGMAVTISVKSEKISTLSSENKIISFKEMNPPDYIKDTKSDIIFFQKSVPGHDNKMQFESSSYEGYFLASEKERDLFKLILKKEDELGDRSIMFTVQNED', 'fulfilled'),
  ('IL-18 variant G3P, E6K, D54Y, S55P, T63S, N91S, R104Q (ligand) YFPKLKSKLSVIRNLNDQVLFIDQGNRPLFEDMTDSDMRDNAPRTIFIISMYKYPQPRGMAVSISVKSEKISTLSSENKIISFKEMNPPDSIKDTKSDIIFFQQSVPGHDNKMQFESSSYEGYFLASEKERDLFKLILKKEDELGDRSIMFTVQNED', 'fulfilled'),
  ('IL-18 variant G3P, E6K, D54Y, S55P, T63S, N91S, R104Q, Q154R (ligand) YFPKLKSKLSVIRNLNDQVLFIDQGNRPLFEDMTDSDMRDNAPRTIFIISMYKYPQPRGMAVSISVKSEKISTLSSENKIISFKEMNPPDSIKDTKSDIIFFQQSVPGHDNKMQFESSSYEGYFLASEKERDLFKLILKKEDELGDRSIMFTVRNED', 'not fulfilled'),
  ('IL-18 variant G3Q, E6Q, K53T, D54W, S55F, N91Y (ligand) YFQKLQSKLSVIRNLNDQVLFIDQGNRPLFEDMTDSDMRDNAPRTIFIISMYTWFQPRGMAVTISVKSEKISTLSSENKIISFKEMNPPDYIKDTKSDIIFFQRSVPGHDNKMQFESSSYEGYFLASEKERDLFKLILKKEDELGDRSIMFTVQNED', 'fulfilled'),
  ('IL-18 variant G3P, E6K, D54R, S55P, T63A, N91V (ligand) YFPKLKSKLSVIRNLNDQVLFIDQGNRPLFEDMTDSDMRDNAPRTIFIISMYKRPQPRGMAVAISVKSEKISTLSSENKIISFKEMNPPDVIKDTKSDIIFFQRSVPGHDNKMQFESSSYEGYFLASEKERDLFKLILKKEDELGDRSIMFTVQNED', 'fulfilled'),
  ('IL-18 variant G3P, E6K, D54Y, S55P, Q56H, T63S, N91S, R104Q (ligand) YFPKLKSKLSVIRNLNDQVLFIDQGNRPLFEDMTDSDMRDNAPRTIFIISMYKYPHPRGMAVSISVKSEKISTLSSENKIISFKEMNPPDSIKDTKSDIIFFQQSVPGHDNKMQFESSSYEGYFLASEKERDLFKLILKKEDELGDRSIMFTVQNED', 'fulfilled'),
  ('IL-18 variant G3D, E6G, K53G, D54A, T63S, N91Y, R104Q (ligand) YFDKLGSKLSVIRNLNDQVLFIDQGNRPLFEDMTDSDMRDNAPRTIFIISMYGASQPRGMAVSISVKSEKISTLSSENKIISFKEMNPPDYIKDTKSDIIFFQQSVPGHDNKMQFESSSYEGYFLASEKERDLFKLILKKEDELGDRSIMFTVQNED', 'fulfilled'),
  ('IL-18 variant G3P, E6H, D54A, S55P, Q56K, T63S, N91M (ligand) YFPKLHSKLSVIRNLNDQVLFIDQGNRPLFEDMTDSDMRDNAPRTIFIISMYKAPKPRGMAVSISVKSEKISTLSSENKIISFKEMNPPDMIKDTKSDIIFFQRSVPGHDNKMQFESSSYEGYFLASEKERDLFKLILKKEDELGDRSIMFTVQNED', 'fulfilled');
